System: Peptidyl-prolyl cis-trans isomerase FKBP1A (Homo sapiens) | Read-out: pKd | Origin: multiple publications
Sequence (P62942 whole entry): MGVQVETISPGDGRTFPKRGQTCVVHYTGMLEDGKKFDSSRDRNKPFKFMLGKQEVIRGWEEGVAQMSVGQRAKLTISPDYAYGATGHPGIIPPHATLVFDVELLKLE
# pKd = -log10(concentration in molar units)

COc1ccc(OCC(=O)N2CCOCC2)cc1
3.45
COc1ccc(CCC(=O)N2CCOCC2)cc1
3.69

Query block: Please provide the recorded pKd for O=C(COc1cccc(Cl)c1)N1CCOCC1 , tested on Peptidyl-prolyl cis-trans isomerase FKBP1A (Homo sapiens).
Result block: 3.12

Query block: Please provide the recorded pKd for C=CCCC[C@H](OC(=O)[C@@H]1CCCCN1C(=O)C(=O)[C@@]1(O)CC[C@H](OC)[C@@H](COC)O1)/C(C)=C/[C@@H]1CC[C@@H](O)[C@H](OC)C1 , tested on Peptidyl-prolyl cis-trans isomerase FKBP1A (Homo sapiens).
Result block: 4.40

Query block: Please provide the recorded pKd for CCCC1C(=O)CC[C@@H](C)[C@@H](CCc2cccnc2)OC(=O)[C@@H]2CCCN(C2)C(=O)C(=O)CSCC[C@@H](OC)C[C@@H](C)CC(=O)N1C (stereo not given in full) , tested on Peptidyl-prolyl cis-trans isomerase FKBP1A (Homo sapiens).
Result block: 6.19

Query block: Please provide the recorded pKd for CCOC(=O)[C@@H]1CCCCN1C(=O)C(=O)C(C)(C)CC , tested on Peptidyl-prolyl cis-trans isomerase FKBP1A (Homo sapiens).
Result block: 6.18

Query block: Please provide the recorded pKd for O=C(O)c1cc(C(F)(F)F)ccc1SCC(=O)N1CCOCC1 , tested on Peptidyl-prolyl cis-trans isomerase FKBP1A (Homo sapiens).
Result block: 3.34
